I'd appreciate it if you could supply Cyno Primary Hepatocyte Editing % 100 ng/mL values for the items below.
Test system: ANGPTL3 gene
test_name: ANGPTL3 gRNA/SpCas9 editing in primary cynomolgus hepatocytes (Table 3)
Format: cell-based, cynomolgus monkey
# number only, unit % dropped from output

# molecule GA110: ANGPTL3 gRNA; protospacer GACCATGTCCCAACTGAAGG (SEQ ID NO: 108) (nucleic acid, 2'-O-methyl at 1, 2, other sugars and backbone not given here; further chemistry not fully specified) guide: GACCATGTCCCAACTGAAGGGTTTTAGAGCTAGAAATAGCAAGTTAAAATAAGGCTAGTCCGTTATCAACTTGAAAAAGTGGCACCGAGTCGGTGCTTTT ; its Cyno Primary Hepatocyte Editing % 100 ng/mL = 8.59

Entry GA116: ANGPTL3 gRNA; protospacer GTAGAATTTTTTCTTCTAGG (SEQ ID NO: 114) (nucleic acid, 2'-O-methyl at 1, 2, other sugars, backbone and T or U not given here; further chemistry not fully specified) guide: GUAGAATTTTTTCTTCTAGGGTTTTAGAGCTAGAAATAGCAAGTTAAAATAAGGCTAGTCCGTTATCAACTTGAAAAAGTGGCACCGAGTCGGTGCTTTT ; Cyno Primary Hepatocyte Editing % 100 ng/mL = 10.84

Where do these numbers come from? They come from patent US20250152746A1.
